Provenance of the data: ChEMBL document CHEMBL5375953

Assay: AUC(infinity) in CD-1 mouse at 5 mg/kg,po administration measured after 24 hrs by LC-MS/MS analysis
Type: ADME, organism-based
Set-up: dose 5 mg/kg, time 24 hrs, route po
Details: in vivo
quantity-measured: AUC(0-inf) (ng·h/mL)

>>> recorded_value("CCS(=O)(=O)c1ccc(CC(=O)Nc2cc(Cl)c(-c3ccc(OC(C)C)c(C#N)c3)c(Cl)c2)cc1")
20600

---

Experiment: Oral bioavailability in dog at 2 mg/kg administration measured after 24 hrs by LC-MS/MS analysis
Assay type: ADME, organism-based, Canis lupus familiaris
Settings: in vivo
quantity-measured: bioavailability

>>> recorded_value("CCS(=O)(=O)c1ccc(CC(=O)Nc2cc(Cl)c(-c3ccc(OC(C)C)c(C#N)c3)c(Cl)c2)cc1")
"52.2%"
